PROTOCOL DESCRIPTION: Plasma and brain exposure in non-tumour bearing male Sprague Dawley rats
Type: in vivo, rat
PROTOCOL CONDITIONS: Sprague Dawley, rat, plasma; male SD rats, 30 mg/kg oral
READOUT: Cmax (ng/mL)
Please give a number only; it is taken to be in ng/mL.

Name the reported Cmax value associated with the compound CCN1CCN(Cc2ccc(Nc3ncc(F)c(-c4cc(F)c5nc(C)n(C(C)C)c5c4)n3)nc2)CC1.CS(=O)(=O)O [Example 16]
1500

---

PROTOCOL DESCRIPTION: Plasma and brain exposure in non-tumour bearing male Sprague Dawley rats
Format: in vivo, rat
PROTOCOL CONDITIONS: male, Sprague Dawley, rat, brain/plasma, po, 30 mg/kg, male SD rats, 30 mg/kg oral, 0-48 Hours; read-out: AUC Brain/Plasma Ratio
READOUT: Kp

Name the reported Kp value associated with the molecule CCN1CCN(Cc2ccc(Nc3ncc(F)c(-c4cc(F)c5nc(C)n(C(C)C)c5c4)n3)nc2)CC1.CS(=O)(=O)O
0.92

---

PROTOCOL DESCRIPTION: Plasma and brain exposure in non-tumour bearing male Sprague Dawley rats
Type: in vivo, rat
PROTOCOL CONDITIONS: Sprague Dawley, rat, plasma; male SD rats, single oral dose 30 mg/kg, 24 h; read-out: Plasma concentration (Mean)
READOUT: concentration at 24 h (ng/mL)
Please give a number only; it is taken to be in ng/mL.

Name the reported concentration at 24 h value associated with the molecule CCN1CCN(Cc2ccc(Nc3ncc(F)c(-c4cc(F)c5nc(C)n(C(C)C)c5c4)n3)nc2)CC1.CS(=O)(=O)O [Example 16, methanesulfonate]
1020

---

PROTOCOL DESCRIPTION: Plasma and brain exposure in non-tumour bearing male Sprague Dawley rats
Format: in vivo, rat
PROTOCOL CONDITIONS: Sprague Dawley, rat, brain; male SD rats, single oral dose 30 mg/kg, 48 h; read-out: Brain concentration (Mean)
READOUT: concentration at 48 h (ng/g)
Please give a number only; it is taken to be in ng/g.

Name the reported concentration at 48 h value associated with the compound CCN1CCN(Cc2ccc(Nc3ncc(F)c(-c4cc(F)c5nc(C)n(C(C)C)c5c4)n3)nc2)CC1.CS(=O)(=O)O [Example 16, methanesulfonate]
718

---

PROTOCOL DESCRIPTION: Plasma and brain exposure in non-tumour bearing male Sprague Dawley rats
Assay type: in vivo, rat
PROTOCOL CONDITIONS: Sprague Dawley, rat, plasma; male SD rats, single oral dose 30 mg/kg, 48 h; read-out: Plasma concentration (Mean)
READOUT: concentration at 48 h (µg/mL)
Please give a number only; it is taken to be in µg/mL.

Name the reported concentration at 48 h value associated with the compound CCN1CCN(Cc2ccc(Nc3ncc(F)c(-c4cc(F)c5nc(C)n(C(C)C)c5c4)n3)nc2)CC1.CS(=O)(=O)O [Example 16, methanesulfonate]
0.972

---

TARGET UNDER TEST: UniProt P11802
Sequence (P11802 whole entry): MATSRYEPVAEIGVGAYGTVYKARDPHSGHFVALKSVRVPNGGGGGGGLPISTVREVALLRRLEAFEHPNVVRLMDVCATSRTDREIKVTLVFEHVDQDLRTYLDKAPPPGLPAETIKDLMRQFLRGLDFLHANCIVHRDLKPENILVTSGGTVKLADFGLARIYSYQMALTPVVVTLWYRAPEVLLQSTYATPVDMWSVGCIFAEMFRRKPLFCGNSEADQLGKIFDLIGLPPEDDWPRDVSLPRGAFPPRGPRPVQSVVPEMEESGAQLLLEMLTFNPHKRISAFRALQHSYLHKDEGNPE
Sequence (P30281 whole entry partner): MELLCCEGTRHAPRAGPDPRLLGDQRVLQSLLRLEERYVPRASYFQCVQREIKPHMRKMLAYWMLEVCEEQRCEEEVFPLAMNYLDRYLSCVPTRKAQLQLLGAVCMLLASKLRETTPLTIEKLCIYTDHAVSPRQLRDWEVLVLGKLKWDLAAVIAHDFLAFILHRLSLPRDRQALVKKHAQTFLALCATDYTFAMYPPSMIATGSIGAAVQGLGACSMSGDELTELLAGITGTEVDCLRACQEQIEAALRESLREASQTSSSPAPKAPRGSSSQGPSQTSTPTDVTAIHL
READOUT: pIC50
Scale: negative log10 of molar concentration, which is what pIC50 denotes.

Recorded pIC50 for CCN1CCC(Cc2ccc(Nc3ncc(F)c(-c4cc(F)c5nc(C)n(C(C)C)c5c4)n3)nc2C)CC1 [Example 25, methanesulfonate] with UniProt P11802, please?
8.52

The reported measurements were obtained from patent US7855211B2.
